IC50 values for the compounds below.
Molecular target: human LPAR1 (Homo sapiens)
Construct: expressed in transfected cells
Assay: Test Example 1: antagonism against response of LPA-induced increase in intracellular Ca2+ concentration in RH7777 cells stably expressing human LPAR1
Assay type: cell-based
Settings: RH7777 cells stably expressing human LPAR1; Fluo-4 fluorescence, FDSS6000; read-out: IC50 value (concentration producing 50% antagonism against response of LPA-induced increase in intracellular Ca2+ concentration) (converted)
State just the number; it will be interpreted in nM.

Record excerpt, results attached:
CCOc1cc([C@@H](C)N(CCCCc2ccccc2)C(=O)NC2CCC(C(=O)O)C2)cc(OCC)c1C (stereo partly shown) [Example 1-142]: 49.2
CCOc1cc(C(C)N(CCCCc2ccc(F)cc2)C(=O)NC2(C(=O)O)CC(F)(F)C2)cc(OCC)c1C (stereo not shown) [Example 4-9]: 11.6
CCOc1cc([C@@H](C)N(CCCCc2cccc(OC)c2)C(=O)NC2(C(=O)O)CC(F)(F)C2)cc(OCC)c1C [Example 4-18]: 18.1
CCOc1cc(C(C)N(CCCc2cccc(C)c2)C(=O)NC2(C(=O)O)CC(F)(F)C2)cc(OCC)c1C (stereo not shown) [Example 4-13]: 59.8
CCC(c1cc(OC)c(C)c(OC)c1)N(CCCCc1ccccc1)C(=O)NC1(C(=O)O)CC(F)(F)C1 (stereo not shown) [Example 3-3]: 30.1

Prompt line: Item: CCOc1cc([C@@H](C)N(CCO[C@@H](C)c2ccccc2)C(=O)NC2(C(=O)O)CC(OC)C2)c(Cl)c(OCC)c1C(C)O (single isomer, unassigned) [Example 5-58] Test system: human LPAR1 (Homo sapiens) Read-out: IC50 Value: ?
Response line: 3.82

Prompt line: Item: CCOc1cc([C@@H](C)N(CCN2Cc3ccccc3C2)C(=O)NC2(C(=O)O)CC(F)(F)C2)cc(OCC)c1C [Example 4-31] Test system: human LPAR1 (Homo sapiens) Read-out: IC50 Value: ?
Response line: 28.4

###

IC50 values for the compounds below.
Biological target: human LPAR1 (Homo sapiens, UniProt Q92633)
Construct: expressed in transfected cells
Sequence (Q92633 whole entry): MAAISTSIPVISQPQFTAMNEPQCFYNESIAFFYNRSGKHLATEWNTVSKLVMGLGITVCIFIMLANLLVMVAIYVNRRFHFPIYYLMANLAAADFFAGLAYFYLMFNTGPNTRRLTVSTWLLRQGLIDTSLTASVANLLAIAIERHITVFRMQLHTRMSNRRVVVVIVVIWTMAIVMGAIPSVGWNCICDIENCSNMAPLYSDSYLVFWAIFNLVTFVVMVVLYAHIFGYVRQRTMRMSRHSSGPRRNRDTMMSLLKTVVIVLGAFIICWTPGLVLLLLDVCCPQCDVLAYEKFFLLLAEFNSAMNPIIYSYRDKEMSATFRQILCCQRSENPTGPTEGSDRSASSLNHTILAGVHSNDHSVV
Assay: Test Example 1: antagonism against response of LPA-induced increase in intracellular Ca2+ concentration in RH7777 cells stably expressing human LPAR1
Type: cell-based
Settings: RH7777 cells stably expressing human LPAR1; Fluo-4 fluorescence, FDSS6000; read-out: IC50 value (concentration producing 50% antagonism against response of LPA-induced increase in intracellular Ca2+ concentration) (converted)
State just the number; it will be interpreted in nM.

CCOc1cc([C@@H](C)N(CCOCc2ccccc2)C(=O)NC2(C(=O)O)CC(F)(F)C2)c(Cl)c(OCC)c1C(C)O (single isomer, unassigned) [Example 5-56]: 1.04
CCOc1cc(C(C)N(CCCCc2ccccc2)C(=O)NC(Cc2cccnc2)C(=O)O)cc(OCC)c1C (stereo not shown): 88.5
COc1cc(C(C)N(CCOC(C)c2ccccc2)C(=O)NC2(C(=O)O)CCC2)c(Cl)c(OC)c1C1CC1 (stereo not shown): 3.21
CCOc1cc([C@@H](C)N(C(=O)NC2(C(=O)O)CC(F)(F)C2)C2CC(Cc3ccccc3)C2)cc(OCC)c1C (stereo partly shown): 37.2
CCOc1c(C(C)=O)ccc([C@@H](C)N(CCCC(F)(F)c2ccccc2)C(=O)NC2(C(=O)O)CCOCC2)c1C: 8.44
COc1cc(C(C)N(CCOC(C)c2ccccc2)C(=O)NC2(C(=O)O)CCC2)c(C)c(OC)c1C1CC1 (stereo not shown): 2.95

Prompt line: // returns reported IC50 for input CCOc1cc(C(C)N(CCCCc2ccccc2)C(=O)NC2(C(=O)O)CC(F)(F)C2)c(C)cc1C(C)=O (stereo not shown)
Response line: 0.944

###

Target: human LPAR1 (Homo sapiens, UniProt Q92633)
Construct: expressed in transfected cells
Assay: Test Example 1: antagonism against response of LPA-induced increase in intracellular Ca2+ concentration in RH7777 cells stably expressing human LPAR1
Assay type: cell-based
Procedure: (1) Preparation of RH7777 cells stably expressing human LPAR1 The human LPAR1 expression vector was transfected into RH7777 cells to acquire human LPAR1 expressing cells. […] The cells were seeded onto the Poly-D-Lysine 96 well black plate and incubated overnight. […] In FDSS6000 (Hamamatsu Photonics K.K.), LPAs were added, and the change in intracellular Ca^2+ concentration was detected using the fluorescence value of a wavelength of 540 nm by an excitation wavelength of 480 nm as an indicator. […]
MEASURED ENDPOINT: IC50 (µM)
State just the number; it will be interpreted in µM.

Record excerpt, results attached:
COc1cc(CN(CCCCc2ccccc2)C(=O)NC(CC(C)C)C(=O)O)cc(OC)c1C (stereo not drawn): 4.68
COc1cc(C(C)N(CCCCc2ccccc2)C(=O)NC2(C(=O)O)CC(F)(F)C2)cc(OC)c1C (stereo not drawn): 0.00396

Now for a further molecule.
Prompt line: // returns reported IC50 for input CCCCC(NC(=O)N(CCCCc1ccccc1)Cc1cc(OC)c(C)c(OC)c1)C(=O)O (stereo not drawn)
Response line: 1.8

###

Biological target: human LPAR1 (Homo sapiens)
Construct: expressed in transfected cells
Test: Test Example 1: antagonism against response of LPA-induced increase in intracellular Ca2+ concentration in RH7777 cells stably expressing human LPAR1
Assay type: cell-based
Conditions: RH7777 cells stably expressing human LPAR1; Fluo-4 fluorescence, FDSS6000; read-out: IC50 value (concentration producing 50% antagonism against response of LPA-induced increase in intracellular Ca2+ concentration) (converted)
MEASURED ENDPOINT: IC50

COc1cc(Br)cc(C(C)N(CCCCc2ccccc2)C(=O)NC2(C(=O)O)CC(F)(F)C2)c1 (centres unmarked): 7.13 nM
CCOc1cc(C(C)N(CCCCc2ccccc2)C(=O)NC2(c3nn[nH]n3)CCCC2)cc(OCC)c1C (centres unmarked): 38.4 nM

Prompt line: // returns reported IC50 for input "CCOc1cc([C@@H](C)N(CCCCc2ccccc2)C(=O)NCC2(C(=O)O)CC2)cc(OCC)c1C(C)=O"
Response line: 28.7 nM

Prompt line: // returns reported IC50 for input CCNc1cc(C(C)N(CCCCc2ccccc2)C(=O)NC2(C(=O)O)CCC2)cc(OCC)c1C(C)=O (centres unmarked) [Example 5-103]
Response line: 1.71 nM

Prompt line: // returns reported IC50 for input "CCOc1cc([C@@H](C)N(CCCC(F)(F)c2ccccc2)C(=O)NC2(C(=O)O)CC2)cc(OCC)c1C1CC1"
Response line: 1.21 nM

Prompt line: // returns reported IC50 for input CCOc1cc(C(C)N(CCCCc2ccccc2)C(=O)NC2(C(N)=O)CCCC2)cc(OCC)c1C (centres unmarked)
Response line: 1890 nM

Prompt line: // returns reported IC50 for input CCOc1c(C(C)O)ccc([C@@H](C)N(CCCCc2ccccc2)C(=O)NC2(C(=O)O)CC(F)(F)C2)c1C (some centres unmarked) [Example 1-77]
Response line: 3.12 nM

Prompt line: // returns reported IC50 for input CCOc1cc([C@@H](C)N(CCO[C@@H](C)c2ccccc2)C(=O)NC2(C(=O)O)CC(OC)C2)cc(OCC)c1C1CC1 (some centres unmarked)
Response line: 1.03 nM

###

Target: human LPAR1 (Homo sapiens)
Construct: expressed in transfected cells
Experiment: Test Example 1: antagonism against response of LPA-induced increase in intracellular Ca2+ concentration in RH7777 cells stably expressing human LPAR1
Type: cell-based
Details: RH7777 cells stably expressing human LPAR1; Fluo-4 fluorescence, FDSS6000; read-out: IC50 value (concentration producing 50% antagonism against response of LPA-induced increase in intracellular Ca2+ concentration) (converted)
IC50 values for the compounds below.
State just the number; it will be interpreted in nM.

CCCOc1cc(OC)cc(C(C)N(CCCCc2ccccc2)C(=O)NC2(C(=O)O)CC(F)(F)C2)c1 (centres unmarked) [Example 5-16]: 8.97
CCOc1cc(C(C)N(CCCCc2ccccc2)C(=O)NC2CC(C(=O)O)C2)cc(OCC)c1C(C)=O (centres unmarked) [Example 1-128]: 6.38
CCOc1cc(C(C)N(CCO[C@@H](C)c2ccccc2)C(=O)NC2(C(=O)O)CC(OCC)C2)c(C)c(OCC)c1C1CC1 (some centres unmarked) [Example 5-217]: 1.65
CCOc1c(C(C)=O)ccc([C@@H](C)N(CCO[C@H](C)c2ccccc2)C(=O)NC2(C(=O)O)CC(OCC)C2)c1C (some centres unmarked) [Example 4-158]: 4.39
CCOc1cc([C@@H](C)N(CCC(F)(F)Cc2ccccc2)C(=O)NC2(C(=O)O)CC(OCC)C2)cc(OCC)c1C(C)=O (some centres unmarked) [Example 4-92]: 7.79
CCOc1cc([C@@H](C)N(CCO[C@@H](C)c2ccccc2)C(=O)N[C@]2(C(=O)O)C[C@H](OCC)C2)cc(OCC)c1C(C)O (some centres unmarked) [Example 4-134]: 3.92
O=C(NC1(C(=O)O)CCCC1)N(CCCCc1ccccc1)Cc1cccc(Cl)c1 [Example 5-2]: 4520
Cc1ccc(C(C)N(CCCCc2ccccc2)C(=O)NC2(C(=O)O)CC(F)(F)C2)cc1 (centres unmarked) [Example 5-7]: 132
CCOc1cc(C(C)N(CCCCc2ccccc2)C(=O)NC2(C(=O)O)CC(F)(F)C2)c(F)c(OCC)c1C (centres unmarked) [Example 5-83]: 3.36
CCOc1cc([C@@H](C)N(CCO[C@@H](C)c2ccccc2)C(=O)NC2(C(=O)O)CC(F)(F)C2)cc(OCC)c1C1CC1 [Example 4-118]: 0.948

Prompt line: // returns reported IC50 for input CCOc1cc(C(C)N(CCOCc2ccccc2)C(=O)N[C@]2(C(=O)O)C[C@@H](OCC)C2)c(C)c(OCC)c1C(C)=O (some centres unmarked) [Example 5-214]
Response line: 1.92

Prompt line: // returns reported IC50 for input CCOc1cc(C(C)N(CCCCc2ccccc2)C(=O)NC2(C(=O)O)CC(F)(F)C2)cc(OCC)c1C(C)O (centres unmarked) [Example 1-34]
Response line: 1.99

Prompt line: // returns reported IC50 for input CC(c1ccc(F)cc1)N(CCCCc1ccccc1)C(=O)NC1(C(=O)O)CC(F)(F)C1 (centres unmarked) [Example 5-6]
Response line: 164

Prompt line: // returns reported IC50 for input CCOc1cc(C(C)N(CCCCc2ccccc2)C(=O)NC2(C(=O)O)CC(OCC)C2)c(Cl)c(OCC)c1C(C)=O (centres unmarked) [Example 5-50]
Response line: 3.1
